- ASSAYED_SYSTEM: UniProt:Q8VHL0
- Sequence (Q8VHL0 whole entry): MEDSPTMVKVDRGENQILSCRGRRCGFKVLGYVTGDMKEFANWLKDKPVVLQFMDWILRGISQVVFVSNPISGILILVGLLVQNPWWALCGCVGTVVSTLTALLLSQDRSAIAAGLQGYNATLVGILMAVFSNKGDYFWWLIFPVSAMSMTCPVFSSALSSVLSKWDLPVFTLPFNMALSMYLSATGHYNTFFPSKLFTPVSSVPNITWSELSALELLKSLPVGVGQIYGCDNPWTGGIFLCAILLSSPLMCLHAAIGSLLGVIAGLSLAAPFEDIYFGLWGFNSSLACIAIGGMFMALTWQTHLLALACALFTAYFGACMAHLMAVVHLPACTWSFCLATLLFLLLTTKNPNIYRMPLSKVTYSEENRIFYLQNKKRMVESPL
pIC50: −log10 of the molar value.
READOUT_TYPE: pIC50

Please fill in: pIC50 reported for CC(F)(F)c1ccc(S(=O)(=O)c2nnn3c2nc(NCc2ccccc2)c2sccc23)cc1 = < 6.10
